Every entry's value here was drawn from patent US20250368649A1.

Catalogue of IC50 readings, one per entry.
- Target under test: KRas G12R (Homo sapiens, UniProt P01116, G12R)
- Sequence (P01116 1-169 isoform P01116-2 G12R): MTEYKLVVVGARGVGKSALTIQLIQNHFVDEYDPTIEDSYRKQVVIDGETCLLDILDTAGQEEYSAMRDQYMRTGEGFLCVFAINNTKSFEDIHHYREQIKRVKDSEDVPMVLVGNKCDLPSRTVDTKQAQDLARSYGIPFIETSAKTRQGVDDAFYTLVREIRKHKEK
- Measurement description: biochemical
- Applied conditions: Binding to KRas (IC50 nM) G12R, TR-FRET displacement, KRas G12R

Here are 2 compounds together with their reported answers.
### Prompt Consider the compound CCc1c(F)ccc2cc(O)cc(N3CCc4c(nc(OC[C@@]56CCCN5C[C@H](F)C6)nc4N4CCCn5nc(P(C)(C)=O)cc5C4)C3)c12 and give its measured IC50.
### Response < 2 nM

### Prompt O=C1NC(=O)[C@]2(CCCN(c3nc(OCC45CCCN4CCC5)nc4c3CCN(c3c(C5CC5)c(Cl)cc5[nH]ncc35)C4)C2)N1 ?
### Response < 2 nM

---
### Prompt Consider the compound CCc1c(F)ccc2cc(O)cc(N3CCc4c(nc(OC[C@@]56CCCN5C[C@H](F)C6)nc4N4CCCn5nc(C(=O)N6[C@@H]7CNC[C@H]6C7)cc5C4)C3)c12 and give its measured IC50.
### Response < 2 nM

---

- Target under test: KRas G12V (Homo sapiens, UniProt P01116, G12V)
- Sequence (P01116 1-169 isoform P01116-2 G12V): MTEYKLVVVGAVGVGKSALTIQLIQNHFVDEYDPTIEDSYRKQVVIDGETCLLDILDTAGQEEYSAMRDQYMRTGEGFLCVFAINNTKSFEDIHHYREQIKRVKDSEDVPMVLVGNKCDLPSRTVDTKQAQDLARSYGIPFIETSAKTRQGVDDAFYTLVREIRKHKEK
- Measurement description: biochemical
- Applied conditions: Binding to KRas (IC50 nM) G12V, TR-FRET displacement, KRas G12V
Assay metric: IC50 (nM)
// return numeric value only (unit: nM, not printed)

### Prompt Consider the compound CCc1c(F)ccc2cc(O)cc(N3CCc4c(nc(OC[C@@]56CCCN5C[C@H](F)C6)nc4N4CCCn5nc(N(C)C)cc5C4)C3)c12 and give its measured IC50.
### Response 9

### Prompt CCc1cccc2cccc(N3CCc4c(nc(OCC5(CN(C)C)CC5)nc4NCc4cnc(C)nc4N)C3)c12 ?
### Response 4410

### Prompt Cc1cc2[nH]ncc2c(N2CCc3c(nc(OCC45CCCN4CCC5)nc3N3CCCC4(CNC(=O)N4)C3)C2)c1C (stereo not drawn) ?
### Response 12

### Prompt Cc1cc2[nH]ncc2c(N2CCc3c(nc(OCC45CCCN4CCC5)nc3N3CCCC4(C3)NC(=O)NC4=O)C2)c1C (stereo not drawn) ?
### Response 8

// moving on: another record for IC50
### Prompt Consider the compound CCc1cccc2cccc(N3CCc4c(nc(OCC5(CN(C)C)CC5)nc4NC4CN(c5nccn6nc(C)cc56)C4)C3)c12 and give its measured IC50.
### Response 5460

---

Catalogue of inhibition at 0.1 µM readings, one per entry.
- Test system: ASPC1 cells
- Measurement description: Inhibition of KRas-mediated phosphorylation of ERK (Cisbio HTRF pERK), ASPC1 cells
- Assay type: cell-based
- Applied conditions: Homo sapiens, ASPC1; single point at 100 nM; AsPC-1 cells; 3 hrs compound incubation
Put your answer as a value accompanied by its unit after it.

Here are 2 compounds together with their reported answers.
### Prompt Consider the compound CCc1c(F)ccc2cc(O)cc(N3CCc4c(nc(OC[C@@]56CCCN5C[C@H](F)C6)nc4N4CCCn5nc(C(=O)N6CCC7CC6CN7)cc5C4)C3)c12 (stereo partly drawn) and give its measured inhibition at 0.1 µM.
### Response 30%

### Prompt O=C1NCC2(CCCN(c3nc(OCC45CCCN4CCC5)nc4c3CCN(c3cc(O)cc(Cl)c3C3CC3)C4)C2)N1 (stereo not drawn) ?
### Response 9%

// moving on: another record for inhibition at 0.1 µM
### Prompt Consider the compound CCc1c(F)ccc2cc(O)cc(N3CCc4c(nc(OC[C@@]56CCCN5C[C@H](F)C6)nc4N4CCCCn5nc(C(=O)N(C)C)c(Br)c5C4)C3)c12 and give its measured inhibition at 0.1 µM.
### Response 96%

---

Catalogue of IC50 readings, one per entry.
- Target under test: KRas G12R (Homo sapiens, UniProt P01116, G12R)
- Measurement description: biochemical
- Applied conditions: Binding to KRas (IC50 nM) G12R, TR-FRET displacement, KRas G12R
// return numeric value only (unit: nM, not printed)

### Prompt Consider the compound Cc1cc2[nH]ncc2c(N2CCc3c(nc(OCC45CCCN4CCC5)nc3N3CCCC4(CC(O)C4)C3)C2)c1C (single isomer, unassigned; isomer 1) [Example 453] and give its measured IC50.
### Response 680

### Prompt CCCCCCCCCCNC(=O)c1cc2n(n1)CCCN(c1nc(OC[C@@]34CCCN3C[C@H](F)C4)nc3c1CCN(c1cc(O)cc4ccc(F)c(CC)c14)C3)C2 [Example 267] ?
### Response 256

### Prompt Cc1cc2[nH]ncc2c(N2CCc3c(nc(OCC45CCCN4CCC5)nc3N3CCCC4(CNS(=O)(=O)N4)C3)C2)c1C (centres unmarked) [Example 452] ?
### Response 9

### Prompt CCc1c(F)ccc2cc(O)cc(N3CCc4c(nc(OCC5(CN(C)C)CC5)nc4N4CCCC(n5ccc(C)n5)C4)C3)c12 (centres unmarked) [Example 600] ?
### Response 7

### Prompt CCc1c(F)ccc2cc(O)cc(N3CCc4c(nc(OC[C@@]56CCCN5C[C@H](F)C6)nc4N4CCCc5occc5C4)C3)c12 [Example 423] ?
### Response 26

### Prompt CCc1cccc2cccc(N3CCc4c(nc(OCC56CCCN5CCC6)nc4N4CCC(O)CC(S(C)(=O)=O)C4)C3)c12 (single isomer, unassigned) [Example 479] ?
### Response 130

### Prompt Oc1cc(Cl)c(C2CC2)c(N2CCc3c(nc(OCC45CCCN4CCC5)nc3N3CC4CC(O)C(C4)C3)C2)c1 (centres unmarked) [Example 444] ?
### Response 40

### Prompt CCc1c(F)ccc2cc(O)cc(N3CCc4c(nc(OC[C@@]56CCCN5C[C@H](F)C6)nc4N4CCCC(O)(C(N)=O)C4)C3)c12 (some centres unmarked) [Example 368] ?
### Response 6

### Prompt CCc1c(F)ccc2cc(O)cc(N3CCc4c(nc(OC[C@@]56CCCN5C[C@H](F)C6)nc4N4CCNc5cc(Br)ccc5C4)C3)c12 [Example 348] ?
### Response 43000

### Prompt CCc1c(F)ccc2cc(O)cc(N3CCc4c(nc(OC[C@@]56CCCN5C[C@H](F)C6)nc4N4CCCn5nc(C(=O)N6CCC7CC6CN7C)cc5C4)C3)c12 (some centres unmarked) [Example 501] ?
### Response 2

---
### Prompt Consider the compound CCCCCCCCCCN(C)C(=O)c1cc2n(n1)CCCN(c1nc(OC[C@@]34CCCN3C[C@H](F)C4)nc3c1CCN(c1cc(O)cc4ccc(F)c(CC)c14)C3)C2 [Example 266] and give its measured IC50.
### Response 254

### Prompt CC1(O)COCCN(c2nc(OCC34CCCN3CCC4)nc3c2CCN(c2cc(O)cc(Cl)c2C2CC2)C3)C1 (centres unmarked) [Example 436] ?
### Response 17

---

- Target under test: KRas G12V (Homo sapiens, UniProt P01116, G12V)
- Measurement description: biochemical
- Applied conditions: Binding to KRas (IC50 nM) G12V, TR-FRET displacement, KRas G12V
Assay metric: IC50 (nM)
// return numeric value only (unit: nM, not printed)

### Prompt Lab note: need IC50 for CCc1cccc2cccc(N3CCc4c(nc(OCC5(CN(C)C)CC5)nc4N4CCCOC(C)C4)C3)c12 (stereo not drawn) on KRas G12V (Homo sapiens, UniProt P01116, G12V), anyone have it?
### Response 243

### Prompt CCc1cccc2cccc(N3CCc4c(nc(OCC5(CN(C)C)CC5)nc4NC4CN(C(=O)NC)C4)C3)c12 ?
### Response 1910

---

- Target under test: KRas G12V (Homo sapiens, UniProt P01116, G12V)
- Measurement description: biochemical
- Applied conditions: Binding to KRas (IC50 nM) G12V, TR-FRET displacement, KRas G12V
Assay metric: IC50 (nM)
// return numeric value only (unit: nM, not printed)

Here are 3 compounds together with their reported answers.
### Prompt Consider the compound CCc1cccc2cccc(N3CCc4c(nc(OCC5(CN(C)C)CC5)nc4N4CCCC(c5nnc[nH]5)C4)C3)c12 (stereo not drawn) [Example 514] and give its measured IC50.
### Response 1570

### Prompt CCc1c(F)ccc2cc(O)cc(N3CCc4c(nc(OC[C@@]56CCCN5C[C@H](F)C6)nc4N4CCCc5nc[nH]c5C4)C3)c12 [Example 357] ?
### Response 6

### Prompt CCc1cccc2cccc(N3CCc4c(nc(OCC5(CN(C)C)CC5)nc4N4CCOC(C(F)F)CC4)C3)c12 (stereo not drawn) [Example 544] ?
### Response 14500

// moving on: another record for IC50
### Prompt Consider the compound CCc1cccc2cccc(N3CCc4c(nc(OCC5(CN(C)C)CC5)nc4NCc4ncc(C#N)c(N)n4)C3)c12 [Example 706] and give its measured IC50.
### Response 2200
